Assay: Pharmacokinetic parameters in dogs
Assay type: in vivo
Settings: beagle, plasma; dog, po = 10 mpk vs iv = 3 mpk
outcomeMeasure: bioavailability (%)
Kindly provide the numeric value in % only, without the unit symbol.

Name the reported bioavailability value associated with the compound CN1C(=S)[C@@H](NC(=O)c2ncn(Cc3ccccc3)n2)COc2cccnc21
34.2

###

Experiment: Pharmacokinetics in C57BL/6 mice
Assay type: in vivo
Conditions: C57BL/6, plasma, po; mouse, p.o. 1 mg/kg
outcomeMeasure: Cmax (nM)
Kindly provide the numeric value in nM only, without the unit symbol.

Name the reported Cmax value associated with the compound CN1C(=S)[C@@H](NC(=O)c2ncn(Cc3ccccc3)n2)COc2cccnc21
1500

###

Test: In vitro Caco-2 cell permeability assay
Format: in vitro ADME
Settings: human, pH 7.4; Caco-2, 2 μM, 120 minutes, pH 7.40; read-out: Apparent permeability coefficient
outcomeMeasure: Papp at 120 min, 2 μM (×10⁻⁶ cm/s)
Kindly provide the numeric value in ×10⁻⁶ cm/s only, without the unit symbol.

Name the reported Papp at 120 min, 2 μM value associated with the compound CN1C(=S)[C@@H](NC(=O)c2ncn(Cc3ccccc3)n2)COc2cccnc21 [WX009]
18.4

###

Experiment: Pharmacokinetic parameters in dogs
Type: in vivo
Settings: beagle, plasma, 3 mg/kg; dog, iv = 3 mpk; read-out: Vdss
outcomeMeasure: Vd (L/kg)
Kindly provide the numeric value in L/kg only, without the unit symbol.

Name the reported Vd value associated with the molecule CN1C(=S)[C@@H](NC(=O)c2ncn(Cc3ccccc3)n2)COc2cccnc21 [WX009]
2.4

###

Tested on: U937 cells
Test: U937 cell activity assay: TNFα/QVD-OPh-induced programmed cell necrosis (necroptosis)
Type: cell-based, human
Details: Homo sapiens, U-937, 24 h, QVD-OPh 25 μM + TNF-α 100 ng/mL, CellTiter Glo
Parameter IC50: see the listing below.
Kindly provide the numeric value in nM only, without the unit symbol.

Name the reported IC50 value associated with the compound CN1C(=S)[C@@H](NC(=O)c2nc(Cc3ccccc3)n[nH]2)COc2ccccc21
0.5

###

Test: Pharmacokinetics in C57BL/6 mice
Assay type: in vivo
Conditions: C57BL/6, plasma, po; mouse, p.o. 1 mg/kg
outcomeMeasure: AUC(0-t) (µM·h)
Kindly provide the numeric value in µM·h only, without the unit symbol.

Name the reported AUC(0-t) value associated with the compound CN1C(=S)[C@@H](NC(=O)c2ncn(Cc3ccccc3)n2)COc2cccnc21
3.85

###

Test: Pharmacokinetic parameters in dogs
Type: in vivo
Conditions: beagle, plasma, 3 mg/kg; dog, iv = 3 mpk
Procedure: Four healthy adult beagle dogs were selected and randomly divided into two groups. One group was given the assay compound by intravenous injection, and the other group was given the assay compound by gavage. […] The blood concentration was determined by LC-MS/MS method. Relevant pharmacokinetic parameters were calculated by WinNonlin™ Version 6.3 (Pharsight. Mountain View, CA) pharmacokinetic software using non-compartmental model and linear logarithmic trapezoidal method. […]
outcomeMeasure: clearance (mL/min/kg)
Kindly provide the numeric value in mL/min/kg only, without the unit symbol.

Name the reported clearance value associated with the compound CN1C(=S)[C@@H](NC(=O)c2ncn(Cc3ccccc3)n2)COc2cccnc21
6.2

###

Assay: Pharmacokinetic parameters in dogs
Assay type: in vivo
Details: beagle, plasma, 10 mg/kg; dog, po = 10 mpk
Procedure: Four healthy adult beagle dogs were selected and randomly divided into two groups. One group was given the assay compound by intravenous injection, and the other group was given the assay compound by gavage. […] The blood concentration was determined by LC-MS/MS method. Relevant pharmacokinetic parameters were calculated by WinNonlin™ Version 6.3 (Pharsight. Mountain View, CA) pharmacokinetic software using non-compartmental model and linear logarithmic trapezoidal method. […]
outcomeMeasure: AUC(0-t)
# do not omit the unit; it follows the number

Name the reported AUC(0-t) value associated with the compound CN1C(=S)[C@@H](NC(=O)c2ncn(Cc3ccccc3)n2)COc2cccnc21
23.6 µM·h

###

Assay: Pharmacokinetic parameters in dogs
Assay type: in vivo
Conditions: beagle, plasma, 1 mg/kg; dog, iv = 1 mpk
outcomeMeasure: clearance

Name the reported clearance value associated with the molecule CN1C(=S)[C@@H](NC(=O)c2nc3n(n2)[C@H](c2ccccc2)CC3)COc2cccnc21
5.18 mL/min/kg

###

Experiment: Pharmacokinetic parameters in dogs
Format: in vivo
Settings: beagle, plasma, 1 mg/kg; dog, iv = 1 mpk; read-out: Vdss
outcomeMeasure: Vd (L/kg)
Kindly provide the numeric value in L/kg only, without the unit symbol.

Name the reported Vd value associated with the molecule CN1C(=S)[C@@H](NC(=O)c2nc3n(n2)[C@H](c2ccccc2)CC3)COc2cccnc21
2.02

###

System: U937 cells
Experiment: U937 cell activity assay: TNFα/QVD-OPh-induced programmed cell necrosis (necroptosis)
Type: cell-based, human
Conditions: Homo sapiens, U-937, 24 h, QVD-OPh 25 μM + TNF-α 100 ng/mL, CellTiter Glo
IC50 less than 6 nM is t; IC50 greater than or equal to 6 nM is f.

The examples below pair each entry with its known result.
CN1C(=S)[C@@H](NC(=O)c2ncn(Cc3cccc(Cl)c3)n2)COc2cccnc21 | f
[2H]C([2H])([2H])N1C(=S)[C@@H](NC(=O)c2n[nH]c(Cc3ccccc3)n2)COc2cccnc21 | t
CN1C(=S)[C@@H](NC(=O)c2ncn(Cc3ccc(F)cc3)n2)COc2cccnc21 | t

Determine whether this compound shows IC50 lower than 6 nM (ties excluded): COc1cccc(Cn2cnc(C(=O)N[C@H]3COc4cccnc4N(C)C3=S)n2)c1
f

Then this compound: CN1C(=S)[C@@H](NC(=O)c2ncn(Cc3ccccc3)n2)COc2ccc(C(N)=O)cc21
t

Then this compound: CN1C(=S)[C@@H](NC(=O)c2ncn(Cc3ccccc3F)n2)COc2cc(Cl)cnc21
f

Then this compound: CN1C(=S)[C@@H](NC(=O)c2cn(Cc3ccccc3)nn2)COc2cccnc21
f

Then this compound: CN1C(=S)[C@@H](NC(=O)c2cc(Cc3ccccc3)on2)COc2cccnc21
f

Then this compound: CN1C(=S)[C@@H](NC(=O)c2nc(Cc3ccccc3)n[nH]2)COc2cccnc21
t

Then this compound: CN1C(=S)[C@@H](NC(=O)c2ncn(Cc3ccc(OC(F)(F)F)cc3)n2)COc2cccnc21
f

Then this compound: CN1C(=S)[C@@H](NC(=O)c2ncn(Cc3ccccc3F)n2)COc2cccnc21
t

###

Tested on: U937 cells
Experiment: U937 cell activity assay: TNFα/QVD-OPh-induced programmed cell necrosis (necroptosis)
Type: cell-based, human
Settings: Homo sapiens, U-937, 24 h, QVD-OPh 25 μM + TNF-α 100 ng/mL, CellTiter Glo
outcomeMeasure: pIC50
The meaning of pIC50 here: minus log10 of the concentration in molar units.

CN1C(=S)[C@@H](NC(=O)c2nc3n(n2)CCO[C@H]3c2ccccc2)COc2cccnc21 (single isomer, unassigned) | 8.33
CN1C(=S)[C@@H](NC(=O)c2ncn(Cc3cccc(Br)c3)n2)COc2cccnc21 | 7.62
CN1C(=S)[C@@H](NC(=O)c2ncn(Cc3ccccc3)n2)COc2cc(Cl)cnc21 | 7.89
CN1C(=S)[C@@H](NC(=O)c2ncn(Cc3cc(F)cc(F)c3)n2)COc2cccnc21 | 8.43
CN1C(=S)[C@@H](NC(=O)c2ncn(Cc3ccccc3)n2)COc2ccncc21 | 7.92
CN1C(=S)[C@@H](NC(=O)c2nc3n(n2)[C@H](c2ccccc2)CC3)COc2cccnc21 | 8.74
CN1C(=S)[C@@H](NC(=O)c2ncn(Cc3c(F)cccc3F)n2)COc2cccnc21 | 9.22
CN1C(=S)[C@@H](NC(=O)c2ncn(Cc3ccccc3)n2)COc2cccnc21 | 8.85
CN1C(=S)[C@@H](NC(=O)c2ncn(Cc3cccc(F)c3)n2)COc2cccnc21 | 8.66
CN1C(=S)[C@@H](NC(=O)c2nc(Cc3cccc(C#N)c3)n[nH]2)COc2ccccc21 | 8.74

Name the reported pIC50 value associated with the molecule Cc1nc(C(=O)N[C@H]2COc3cccnc3N(C)C2=S)nn1Cc1ccccc1
8.01

Then this molecule: CN1C(=S)[C@@H](NC(=O)c2ncn(CC34CC(F)(C3)C4)n2)COc2cccnc21
7.23

Then this molecule: CN1C(=S)[C@@H](NC(=O)c2nc(Cc3cccc(C#N)c3)n[nH]2)COc2cccnc21
9.52

###

Test system: U937 cells
Assay: U937 cell activity assay: TNFα/QVD-OPh-induced programmed cell necrosis (necroptosis)
Format: cell-based, human
Conditions: Homo sapiens, U-937, 24 h, QVD-OPh 25 μM + TNF-α 100 ng/mL, CellTiter Glo
Protocol: 1.2 Instrument and Materials Envision plate reader (Perkin Elmer, Cat #2104-0010) 1.3 Formulation of Reagents • (1) 1×DPSB: To 100 mL of 10×DPBS was added 900 mL of deionized water. • (2) 1640 complete medium: To 89 mL of RPMI-1640 medium were added 10 mL of FBS and 1 mL of penicillin/streptomycin 2. Assay Steps • 1. […] The cells were resuspended in 1640 complete medium and counted. […] The plate was incubated at room temperature in the dark for 10 minutes, and then read using an Envision plate reader.
outcomeMeasure: IC50 (nM)
Kindly provide the numeric value in nM only, without the unit symbol.

CN1C(=S)[C@@H](NC(=O)c2nc(Cl)n(Cc3cccc(C#N)c3)n2)COc2cccnc21 | 8.1
CN1C(=S)[C@@H](NC(=O)c2ncn(Cc3ccccc3)n2)COc2ccc(C(=O)O)cc21 | 43

Name the reported IC50 value associated with the compound CN1C(=S)[C@@H](NC(=O)c2cc(Oc3ccccc3)ccn2)COc2cccnc21
5
